Test system: Plasmodium falciparum
protocol.summary: GSK_TCMDC: Inhibition of Plasmodium falciparum 3D7 in whole red blood cells, using parasite LDH activity as an index of growth. Test compounds present at 2uM
Format: functional

>  <smiles.entry>
O=C(N[C@H]1CCN(Cc2ccc(OCCN3CCNCC3)c(Cl)c2)C1)c1ccc(Cl)c(Cl)c1.O=C(O)C(F)(F)F

>  <Inhibition / %>
100

$$$$
>  <smiles.entry>
COc1cccc2cc(C(=O)N[C@@H](CC(C)C)C(=O)N[C@H](/C=N/NC(=O)OC(C)(C)C)CC(=O)OC(C)(C)C)oc12

>  <Inhibition / %>
85

$$$$
>  <smiles.entry>
Cc1nc2nc(N)nc(N)c2c(C)c1Cc1ccc([N+](=O)[O-])cc1.Cl

>  <Inhibition / %>
98

$$$$
>  <smiles.entry>
COc1cc(C)nc2ccc(NC(=O)c3cc([N+](=O)[O-])cc([N+](=O)[O-])c3)cc12.Cl

>  <Inhibition / %>
100

$$$$
>  <smiles.entry>
CCN(CC1CCN(CC2(O)CCOCC2)CC1)c1cc(C)nc(Nc2ccc(Cl)cc2)n1

>  <Inhibition / %>
100

$$$$
>  <smiles.entry>
COc1cc2nc(NCCN3CCOCC3)n3nc(-c4ccccc4)nc3c2cc1OC

>  <Inhibition / %>
96

$$$$
>  <smiles.entry>
O=C(NCc1ccc(Cl)c(Cl)c1)[C@H]1CNCCN1C(=O)c1ccccc1.O=C(O)C(F)(F)F

>  <Inhibition / %>
97

$$$$
>  <smiles.entry>
Cc1ccc(CN2CCN(Cc3cccc(NC(=O)c4cccs4)c3)CC2)cc1C.O=C(O)C(F)(F)F

>  <Inhibition / %>
96

$$$$
>  <smiles.entry>
Cc1cc(N)c2cc(NC(=O)/C=C/c3ccccc3Cl)ccc2n1

>  <Inhibition / %>
100

$$$$
